Molecular target: von Willebrand factor full length (Homo sapiens, UniProt P04275 SEQ:764-2813)
Experiment: filter; 18% bound at 100 nM vWF
Settings: tags: Calbiochem 681300; label: 5'-32P
quantity-kind: pKd
Give only the number. pKd is defined as minus log10 of concentration in molar units.

Query: Using the record for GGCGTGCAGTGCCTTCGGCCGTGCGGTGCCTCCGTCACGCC (ssDNA, 2'-OMe C24, 3'-idT) [ARC1217] , report its pKd.
Result: 7.85
